Here, each record is paired with measured pIC50 data.
Assay: DPPH radical scavenging assay
Conditions: 15 min incubation in the dark; mean ± SEM
Procedure: The stable free radical, DPPH, was used to determine the free radical scavenging activity of the SHL extracts. Briefly, a 0.32 mM solution of DPPH in methanol was prepared, and then 180 µl of this solution was mixed with 30 µl of each sample (1.0 to 5.0 mg/mL in methanol). After 15 min of incubation in the dark, the decrease in the absorbance of the solution was measured at 570 nm on a microplate reader (EL800 Universal Microplate reader, Bio-Tek instruments, Winooski, VT, USA).
// pIC50 is dimensionless: -log10 of concentration (M)

Measured pIC50, O=C(O)CCc1ccc(O)c(O)c1 [Compound 1, 3-(3,4-dihydroxyphenyl)-propionic acid] : 3.96

The compound O=c1cc(-c2ccc(O)c(O[C@@H]3O[C@H](CO)[C@@H](O)[C@H](O)[C@H]3O)c2)oc2cc(O)cc(O)c12 [Compound 5, luteolin-3′-O-β-D-glucopyranoside] showed pIC50 equal to 4.02
